- method-summary: chemical genetic growth profiling, strain panel (AID 1159580);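 further: tested at 20 µM; growth read once vehicle control cultures reached saturation at 30 °C; 1 = growth at the plate median or of vehicle wells; lower values mean less growth of the strain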
- particulars: S. cerevisiae deletion strains, growth OD, locus YJL092W, strain hpr5, active compounds read low
In all, about 5,500 compounds went through this assay and about 2,000 (36%) were called active. Not shown: some 18% with an inconclusive outcome. Some of the results follow.
experimental-readout: normalized growth
Give the figure only, with no unit attached.

Solved entries (count: 3):
| compound | normalized growth |
| --- | --- |
| Cc1c(NC(=O)c2cccnc2)c(=O)n(-c2ccccc2)n1C | 1 |
| C=C(C)[C@@H]1CC[C@]2(CO)CC[C@]3(C)[C@H](CCC4[C@@]5(C)CC[C@H](O)C(C)(C)C5CC[C@]43C)C12 (stereo not given in full) | 1.01 |
| CC[C@H]1OC(=O)[C@H](C)[C@@H](O[C@H]2C[C@@](C)(OC)[C@@H](O)[C@H](C)O2)[C@H](C)[C@@H](O[C@@H]2O[C@H](C)C[C@H](N(C)C)[C@H]2O)[C@](C)(O)C[C@@H](C)[C@@H]2N[C@@H](COCCOC)O[C@H]([C@H]2C)[C@]1(C)O | 0.991 |

Recorded normalized growth (compound CC1=NN(c2ccccc2)C(=O)C1 ): 0.985

Recorded normalized growth (compound CCN(CC)CCNC(=O)c1cc(Cl)c(N)cc1OC ): 0.978

Recorded normalized growth (compound CCCCc1nc(Cl)c(CO)n1Cc1ccc(-c2ccccc2-c2nn[nH]n2)cc1 ): 1
